Assay: Half life in rat at 5 mg/kg, iv
Type: ADME, organism-based
Design: dose 5 mg/kg, route intravenous
Details: in vivo
readout type: half-life (min)
Report the value in min with no unit label.

Prompt: // returns reported half-life for input OC12CC3CC(C1)CC(Nc1nc(N[C@H]4CC[C@H](O)CC4)ncc1C(F)(F)F)(C3)C2
Response: 222

====

Sequence of the target: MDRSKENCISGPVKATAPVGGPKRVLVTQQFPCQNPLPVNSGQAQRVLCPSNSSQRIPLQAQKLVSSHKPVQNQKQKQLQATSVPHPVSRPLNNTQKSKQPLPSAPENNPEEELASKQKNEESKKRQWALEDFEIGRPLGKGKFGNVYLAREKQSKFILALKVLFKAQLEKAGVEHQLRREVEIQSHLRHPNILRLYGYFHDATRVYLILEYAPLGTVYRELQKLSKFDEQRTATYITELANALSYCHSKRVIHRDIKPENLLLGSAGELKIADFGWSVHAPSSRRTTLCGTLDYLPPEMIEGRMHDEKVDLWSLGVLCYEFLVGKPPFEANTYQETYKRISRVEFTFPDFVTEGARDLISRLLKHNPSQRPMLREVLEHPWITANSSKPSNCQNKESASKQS
readout type: pIC50
The value called pIC50 is obtained by taking minus log10 of the concentration in mol/L.

Prompt: // returns reported pIC50 for input O=C(O)c1ccc(Nc2ncc([N+](=O)[O-])c(Nc3ccccc3)n2)cc1
Response: 6.46

Prompt: // returns reported pIC50 for input O=C(O)COc1ccc(Nc2ncc3nnn(-c4ccccc4)c3n2)cc1
Response: 6.89

Prompt: // returns reported pIC50 for input O=C(O)/C=C\c1ccc(Nc2ncc3nnn(-c4ccccc4)c3n2)cc1
Response: 6.95

Prompt: // returns reported pIC50 for input O=C(O)COc1ccc(Nc2ncc([N+](=O)[O-])c(Nc3ccccc3)n2)cc1
Response: 7.07

Prompt: // returns reported pIC50 for input O=C(O)c1ccc(Nc2ncc3nnn(-c4ccccc4)c3n2)cc1
Response: 6.53

====

Assay: Cmax in rat at 20 mg/kg, po
Type: ADME, organism-based
Design: dose 20 mg/kg, route oral
Conditions: in vivo
readout type: Cmax (ng/mL)
Report the value in ng/mL with no unit label.

Prompt: // returns reported Cmax for input OC12CC3CC(C1)CC(Nc1nc(N[C@H]4CC[C@H](O)CC4)ncc1C(F)(F)F)(C3)C2
Response: 5700

====

Kindly supply the reported inhibition values for the records listed here.
Biological target: Glycogen synthase kinase-3 beta (Homo sapiens, UniProt P49841)
Experiment: Inhibition of GSK3-beta at 10 uM
Sequence (P49841 whole entry, looked up): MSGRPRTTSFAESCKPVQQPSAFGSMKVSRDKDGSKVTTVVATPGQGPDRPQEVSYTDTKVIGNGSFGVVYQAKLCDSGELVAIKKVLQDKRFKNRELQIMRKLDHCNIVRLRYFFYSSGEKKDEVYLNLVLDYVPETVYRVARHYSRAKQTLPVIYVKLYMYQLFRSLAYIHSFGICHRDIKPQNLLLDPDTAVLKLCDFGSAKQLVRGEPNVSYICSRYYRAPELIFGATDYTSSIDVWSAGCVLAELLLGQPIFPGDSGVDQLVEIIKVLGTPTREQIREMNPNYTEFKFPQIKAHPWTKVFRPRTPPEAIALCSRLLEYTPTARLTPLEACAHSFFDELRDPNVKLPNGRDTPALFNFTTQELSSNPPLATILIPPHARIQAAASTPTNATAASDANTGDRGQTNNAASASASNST
Mention the unit after the number when you answer.

Prompt: Query inhibition on Glycogen synthase kinase-3 beta (Homo sapiens, UniProt P49841) for O=C(O)c1cccc(Nc2ncc3[nH]c(=O)n(-c4ccccc4)c3n2)c1
Response: 3%

Prompt: Query inhibition on Glycogen synthase kinase-3 beta (Homo sapiens, UniProt P49841) for O=c1n(-c2ccccc2)c2nc(Nc3ccccc3)ncc2n1C1CCCCC1
Response: 14%

Prompt: Query inhibition on Glycogen synthase kinase-3 beta (Homo sapiens, UniProt P49841) for CCCCOC(=O)c1ccc(Nc2ncc3[nH]c(=O)n(-c4ccccc4)c3n2)cc1
Response: -5%

Prompt: Query inhibition on Glycogen synthase kinase-3 beta (Homo sapiens, UniProt P49841) for Cn1c(=O)n(-c2ccccc2)c2nc(Nc3ccccc3)ncc21
Response: 96%

Prompt: Query inhibition on Glycogen synthase kinase-3 beta (Homo sapiens, UniProt P49841) for O=c1[nH]c2cnc(Nc3ccccc3)nc2n1-c1ccccc1
Response: 20%

Prompt: Query inhibition on Glycogen synthase kinase-3 beta (Homo sapiens, UniProt P49841) for CC(C)n1c(=O)n(-c2ccccc2)c2nc(Nc3ccccc3)ncc21
Response: 71%

Prompt: Query inhibition on Glycogen synthase kinase-3 beta (Homo sapiens, UniProt P49841) for CCn1c(=O)n(-c2ccccc2)c2nc(Nc3ccccc3)ncc21
Response: 78%

Prompt: Query inhibition on Glycogen synthase kinase-3 beta (Homo sapiens, UniProt P49841) for COC(=O)COc1ccc(Nc2ncc([N+](=O)[O-])c(Nc3ccccc3)n2)cc1
Response: 41%

Prompt: Query inhibition on Glycogen synthase kinase-3 beta (Homo sapiens, UniProt P49841) for CC(C)(C)n1c(=O)n(-c2ccccc2)c2nc(Nc3ccccc3)ncc21
Response: 93%

Prompt: Query inhibition on Glycogen synthase kinase-3 beta (Homo sapiens, UniProt P49841) for O=C(O)c1ccc(Nc2ncc3[nH]c(=O)n(-c4ccccc4)c3n2)cc1
Response: 88%

====

Target: Glycogen synthase kinase-3 alpha (Homo sapiens, UniProt P49840)
Sequence (P49840 2-483 limits assumed): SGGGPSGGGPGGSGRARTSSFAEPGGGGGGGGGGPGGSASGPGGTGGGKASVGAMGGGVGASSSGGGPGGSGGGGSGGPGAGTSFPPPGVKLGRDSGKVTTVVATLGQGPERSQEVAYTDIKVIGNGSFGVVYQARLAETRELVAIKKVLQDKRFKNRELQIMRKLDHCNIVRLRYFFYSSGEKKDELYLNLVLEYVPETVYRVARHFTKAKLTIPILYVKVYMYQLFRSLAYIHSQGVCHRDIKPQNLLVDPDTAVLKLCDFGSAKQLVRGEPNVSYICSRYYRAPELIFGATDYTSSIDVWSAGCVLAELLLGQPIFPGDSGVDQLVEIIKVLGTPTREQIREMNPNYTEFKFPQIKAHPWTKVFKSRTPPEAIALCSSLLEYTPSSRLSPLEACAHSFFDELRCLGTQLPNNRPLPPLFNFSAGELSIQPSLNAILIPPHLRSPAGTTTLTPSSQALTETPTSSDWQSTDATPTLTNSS
Assay: Inhibition of GSK3-alpha at 10 uM
readout type: inhibition (%)
Report the value in % with no unit label.

Prompt: Query inhibition on Glycogen synthase kinase-3 alpha (Homo sapiens, UniProt P49840) for O=[N+]([O-])c1cnc(Nc2ccccc2)nc1Nc1ccccc1
Response: 52

Prompt: Query inhibition on Glycogen synthase kinase-3 alpha (Homo sapiens, UniProt P49840) for O=c1n(-c2ccccc2)c2nc(Nc3ccccc3)ncc2n1C1CCCCC1
Response: 16

Prompt: Query inhibition on Glycogen synthase kinase-3 alpha (Homo sapiens, UniProt P49840) for CCCCOC(=O)c1ccc(Nc2ncc3[nH]c(=O)n(-c4ccccc4)c3n2)cc1
Response: 6

Prompt: Query inhibition on Glycogen synthase kinase-3 alpha (Homo sapiens, UniProt P49840) for O=C(O)c1ccc(Nc2ncc3[nH]c(=O)n(-c4ccccc4)c3n2)cc1
Response: 93

Prompt: Query inhibition on Glycogen synthase kinase-3 alpha (Homo sapiens, UniProt P49840) for CCn1c(=O)n(-c2ccccc2)c2nc(Nc3ccccc3)ncc21
Response: 73

Prompt: Query inhibition on Glycogen synthase kinase-3 alpha (Homo sapiens, UniProt P49840) for O=c1[nH]c2cnc(Nc3ccccc3)nc2n1-c1ccccc1
Response: -7

Prompt: Query inhibition on Glycogen synthase kinase-3 alpha (Homo sapiens, UniProt P49840) for CC(C)(C)n1c(=O)n(-c2ccccc2)c2nc(Nc3ccccc3)ncc21
Response: 88

Prompt: Query inhibition on Glycogen synthase kinase-3 alpha (Homo sapiens, UniProt P49840) for O=C(O)c1cccc(Nc2ncc3[nH]c(=O)n(-c4ccccc4)c3n2)c1
Response: 1

Prompt: Query inhibition on Glycogen synthase kinase-3 alpha (Homo sapiens, UniProt P49840) for Cn1c(=O)n(-c2ccccc2)c2nc(Nc3ccccc3)ncc21
Response: 94

Prompt: Query inhibition on Glycogen synthase kinase-3 alpha (Homo sapiens, UniProt P49840) for O=C(O)c1ccc(Nc2ncc(Br)c(Nc3ccccc3)n2)cc1
Response: 82

====

Test: AUC in rat at 5 mg/kg, iv
Type: ADME, organism-based
Parameters: dose 5 mg/kg, route intravenous
Settings: plasma
readout type: AUC (ng·h/mL)
Report the value in ng·h/mL with no unit label.

Prompt: // returns reported AUC for input OC12CC3CC(C1)CC(Nc1nc(N[C@H]4CC[C@H](O)CC4)ncc1C(F)(F)F)(C3)C2
Response: 20100

====

Assay: Oral bioavailability in rat at 20 mg/kg
Format: ADME, organism-based
Conditions: in vivo
readout type: bioavailability

Prompt: // returns reported bioavailability for input OC12CC3CC(C1)CC(Nc1nc(N[C@H]4CC[C@H](O)CC4)ncc1C(F)(F)F)(C3)C2
Response: 34%

====

// endpoint IC50 / system Glycogen synthase kinase-3 beta (Homo sapiens, UniProt P49841)
Report the value in nM with no unit label.

Prompt: Query IC50 on Glycogen synthase kinase-3 beta (Homo sapiens, UniProt P49841) for O=C(O)COc1ccc(Nc2ncc3nnn(C45CC6CC(CC(O)(C6)C4)C5)c3n2)cc1
Response: 169

Prompt: Query IC50 on Glycogen synthase kinase-3 beta (Homo sapiens, UniProt P49841) for O=C(O)CCc1ccc(Nc2ncc3nnn(-c4ccccc4)c3n2)cc1
Response: 24

Prompt: Query IC50 on Glycogen synthase kinase-3 beta (Homo sapiens, UniProt P49841) for O=C(O)c1ccc(Nc2ncc(Br)c(Nc3ccccc3)n2)cc1
Response: 3200

Prompt: Query IC50 on Glycogen synthase kinase-3 beta (Homo sapiens, UniProt P49841) for O=C(O)c1ccc(Nc2ncc3[nH]c(=O)n(-c4ccccc4)c3n2)cc1
Response: 4000

Prompt: Query IC50 on Glycogen synthase kinase-3 beta (Homo sapiens, UniProt P49841) for O=C(O)c1ccc(Nc2ncc(C(F)(F)F)c(Nc3ccccc3)n2)cc1
Response: 490

Prompt: Query IC50 on Glycogen synthase kinase-3 beta (Homo sapiens, UniProt P49841) for O=C1CN(c2ccccc2)c2nc(Nc3ccc(C(=O)O)cc3)ncc2N1
Response: 3500

Prompt: Query IC50 on Glycogen synthase kinase-3 beta (Homo sapiens, UniProt P49841) for O[C@H]1CC[C@H](Nc2ncc3nnn(-c4ccccc4)c3n2)CC1
Response: 279

Prompt: Query IC50 on Glycogen synthase kinase-3 beta (Homo sapiens, UniProt P49841) for OC12CC3CC(C1)CC(Nc1nc(N[C@H]4CC[C@H](O)CC4)ncc1C(F)(F)F)(C3)C2
Response: 41

Prompt: Query IC50 on Glycogen synthase kinase-3 beta (Homo sapiens, UniProt P49841) for O=[N+]([O-])c1cnc(N[C@H]2CC[C@H](O)CC2)nc1Nc1ccccc1
Response: 281

Prompt: Query IC50 on Glycogen synthase kinase-3 beta (Homo sapiens, UniProt P49841) for O=C(O)c1ccc(Nc2ncc([N+](=O)[O-])c(NC34CC5CC(CC(C5)C3)C4)n2)cc1
Response: 26

Prompt: Query IC50 on Glycogen synthase kinase-3 beta (Homo sapiens, UniProt P49841) for O=C1OC(Nc2ncc3nnn(-c4ccccc4)c3n2)c2ccccc21 (stereo unspecified)
Response: 23

Prompt: Query IC50 on Glycogen synthase kinase-3 beta (Homo sapiens, UniProt P49841) for O=C(O)c1ccc(Nc2ncc([N+](=O)[O-])c(NC34CC5CC(CC(O)(C5)C3)C4)n2)cc1
Response: 3

Prompt: Query IC50 on Glycogen synthase kinase-3 beta (Homo sapiens, UniProt P49841) for Cn1c(=O)c2cnc(Nc3ccc(C(=O)O)cc3)nc2n1-c1ccccc1
Response: 960

Prompt: Query IC50 on Glycogen synthase kinase-3 beta (Homo sapiens, UniProt P49841) for COc1nn(-c2ccccc2)c2nc(Nc3ccc(C(=O)O)cc3)ncc12
Response: 760

Prompt: Query IC50 on Glycogen synthase kinase-3 beta (Homo sapiens, UniProt P49841) for O=[N+]([O-])c1cnc(Nc2ccccc2)nc1Nc1ccccc1
Response: 2800

The measured values listed here are drawn from ChEMBL document CHEMBL1145583.
